# Experimental target: Menin-MLL (Homo sapiens)
# Construct: His-Menin (M1-L615 end); purchased BIORTUS BP9210
# Sequence (O00255 1-615 isoform O00255-1): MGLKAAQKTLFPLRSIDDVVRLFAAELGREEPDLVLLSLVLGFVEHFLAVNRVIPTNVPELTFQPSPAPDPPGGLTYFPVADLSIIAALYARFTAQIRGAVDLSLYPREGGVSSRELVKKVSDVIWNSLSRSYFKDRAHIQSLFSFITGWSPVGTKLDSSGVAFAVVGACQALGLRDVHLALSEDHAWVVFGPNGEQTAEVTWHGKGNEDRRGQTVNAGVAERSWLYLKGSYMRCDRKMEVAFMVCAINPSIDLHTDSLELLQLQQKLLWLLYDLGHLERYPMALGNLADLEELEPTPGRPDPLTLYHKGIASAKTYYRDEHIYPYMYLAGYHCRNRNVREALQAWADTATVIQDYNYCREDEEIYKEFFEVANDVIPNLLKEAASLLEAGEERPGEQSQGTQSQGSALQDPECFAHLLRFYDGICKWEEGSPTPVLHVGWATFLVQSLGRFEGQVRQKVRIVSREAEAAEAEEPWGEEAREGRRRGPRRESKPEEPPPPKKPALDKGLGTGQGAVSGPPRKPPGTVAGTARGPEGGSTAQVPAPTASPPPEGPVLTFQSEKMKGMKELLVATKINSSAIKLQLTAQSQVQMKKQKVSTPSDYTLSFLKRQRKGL
# Protocol text: Inhibitory activity against Menin-MLL binding (fluorescence polarization)
# Cond: fluorescence polarization; 150 nM His-Menin, 15 nM FITC-MLL; 25°C for 60 min; read-out: Menin-MLL IC50
Observable: IC50

Compound	Result
CCN(C(=O)c1cc(F)ccc1-c1nc(C2CN([C@H](CCCN3CCN(CCC#N)CC3)C(C)C)C2)cn2c(C)ncc12)C(C)C [Example 492]	270 nM

Asked: Recorded IC50 for Cc1nc(F)c2c(-c3ccc(F)cc3C(=O)N3[C@H](C)COC[C@H]3C)cc(C3CN(CC4(O)CCOCC4)C3)cn12 [Example 220] , please?
Given back: 167 nM
